Target: Cytochrome P450 1A2 (Homo sapiens);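 note: PubChem cytochrome P450 panel assay, CYP1A2 panel member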
Sequence (P05177 whole entry): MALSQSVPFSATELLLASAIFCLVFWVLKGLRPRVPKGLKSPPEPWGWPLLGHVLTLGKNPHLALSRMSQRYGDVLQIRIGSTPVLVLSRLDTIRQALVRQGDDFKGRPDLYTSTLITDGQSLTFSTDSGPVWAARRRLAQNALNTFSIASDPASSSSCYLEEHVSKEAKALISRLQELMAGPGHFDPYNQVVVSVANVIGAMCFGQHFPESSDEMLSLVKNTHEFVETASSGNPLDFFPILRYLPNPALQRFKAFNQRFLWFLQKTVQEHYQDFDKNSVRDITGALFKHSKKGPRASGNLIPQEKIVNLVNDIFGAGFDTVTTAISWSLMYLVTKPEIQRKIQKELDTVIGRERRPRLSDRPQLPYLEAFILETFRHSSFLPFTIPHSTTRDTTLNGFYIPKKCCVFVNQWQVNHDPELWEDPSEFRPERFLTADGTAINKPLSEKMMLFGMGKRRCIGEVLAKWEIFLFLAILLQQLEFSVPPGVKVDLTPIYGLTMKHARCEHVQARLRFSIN
Quantity: AC50

> print(dat)
                                    molecule  quantity       experimental.result
 1  COc1ccc(OC)c(NC(=O)CC(Cc2ccccc2OC)C(=O)O)c1 (stereo unspecified)      AC50  0.0316 µM (inconclusive)
 2               COCc1c(C(N)=O)nnn1-c1nonc1N      AC50    25.1 µM (inconclusive)
 3  CC1(C)S[C@@H]2[C@H](C(=O)O)N=C(Cc3ccccc3)N2[C@H]1C(=O)O      AC50    6.31 µM (inconclusive)
 4  COCCn1c(=O)c(-c2cn(C)c3ccccc23)nc2cnc(Oc3ccc(OC)cc3)nc21      AC50    2.51 µM (inconclusive)
 5  COc1ccc(C(=O)N2CCC3(CCCN(c4ncccn4)C3)CC2)cc1      AC50      20 µM (inconclusive)
 6                 N[C@H](C(=O)O)c1cccc(O)c1      AC50    39.8 µM (inconclusive)
 7  O=c1c(-c2ccc(F)cc2)nc2cnc(N3CCOCC3)nc2n1Cc1ccc(F)cc1      AC50      20 µM (inconclusive)
 8  O=c1c(-c2ccccc2)nc2cnc(N3CCOCC3)nc2n1Cc1cccs1      AC50    2.51 µM (inconclusive)
 9  Cc1cnc(CNc2cc(-c3ccccc3C(F)(F)F)ncn2)cn1      AC50    25.1 µM (inconclusive)
10                 CC1(C)CO[C@H](CC(=O)O)CN1      AC50    31.6 µM (inconclusive)
11  O=C(Nc1cccc(Br)c1)/C(=C\c1cccnc1)NC(=O)c1ccco1      AC50    31.6 µM (inconclusive)

###

Biological target: Calpain-2 catalytic subunit (Sus scrofa, UniProt P43367)
Sequence (P43367 whole entry): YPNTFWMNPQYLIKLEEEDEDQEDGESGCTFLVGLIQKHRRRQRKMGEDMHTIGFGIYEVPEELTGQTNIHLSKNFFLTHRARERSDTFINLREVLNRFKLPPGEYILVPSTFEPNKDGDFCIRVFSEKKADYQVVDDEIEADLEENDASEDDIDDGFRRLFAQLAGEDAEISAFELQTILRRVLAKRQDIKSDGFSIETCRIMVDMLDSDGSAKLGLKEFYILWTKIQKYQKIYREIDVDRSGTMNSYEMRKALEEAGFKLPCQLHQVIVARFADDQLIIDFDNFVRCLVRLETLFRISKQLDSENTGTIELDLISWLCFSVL
Assay: pig calpain II inhibitor potency, dose response, biochemical, fluorogenic peptide substrate (AID 1420)
Format: functional
IC50 by entry:
Quantity: IC50

> print(dat)
                                    compound    experimental.result
 1  CN(C1CCCCC1)S(=O)(=O)c1ccc(S(=O)(=O)N2CCCC2)cc1   10.4 µM (not active)
 2  N#Cc1cc([N+](=O)[O-])ccc1NC(=O)COC(=O)C12CC3CC(CC(C3)C1)C2   14.4 µM (not active)
 3  C/C(=N\NC(=O)COc1ccc(C(C)(C)C)cc1)c1ccccc1   5.74 µM (not active)
 4  CS(=O)(=O)N1CCc2cc(NC(=O)c3ccc(Cl)cc3Cl)ccc21   13.7 µM (not active)
 5        Cc1ccnc(NC(=O)CCCOc2ccc(Cl)cc2C)c1  0.444 µM (not active)
 6  C=CCNc1cnn(-c2ccc(C)cc2)c(=O)c1Sc1ccc(C)cc1   > 50 µM (not active)
 7  O=C(C1=C[C@H](c2ccc(C(F)(F)F)cc2)C[C@H](OCc2ccc(CO)cc2)O1)N1CCCCCCC1   14.8 µM (not active)
 8  CC1CCCCN1C(=O)c1cc(-c2ccc(Cl)c(Cl)c2)on1 (stereo not given)    3.9 µM (not active)
 9  COc1ccc(Nc2c(-c3ccc(C)cc3)nc3cnccn23)cc1   > 50 µM (not active)
10  O=[N+]([O-])c1cc(C(F)(F)F)ccc1NCCNC(=S)Nc1ccc(Cl)cc1   7.92 µM (not active)
11  Cc1cccc(Oc2ccc(S(=O)(=O)N3CCCCC3)cc2N)c1   11.2 µM (not active)
12  O=C(COC(=O)CC1c2ccccc2CCN1S(=O)(=O)c1ccccc1)Nc1ccccc1 (stereo not given)   8.09 µM (not active)
13  Cn1c(=O)c2c3c(sc2n2c(SCC(N)=O)nnc12)CC(C(C)(C)C)CC3 (stereo not given)   42.9 µM (not active)
14  O=[N+]([O-])C(=C1Nc2ccccc2N1)C(Cl)=C(Cl)Cl   27.8 µM (not active)
15  COc1ccc(NC(=O)C2CCCN(S(=O)(=O)c3cccc4cccnc34)C2)c(OC)c1 (stereo not given)   4.57 µM (not active)

Hey, just so you know, these numbers are from ChEMBL document CHEMBL1201862.
